- Test System: hCAR LBD (Homo sapiens, UniProt Q14994)
- Construct: or 103-348 of hCAR; made in house; host or cells: E. coli BL21(DE3), pRSETa
- Sequence (Q14994 103-348 isoform Q14994-2): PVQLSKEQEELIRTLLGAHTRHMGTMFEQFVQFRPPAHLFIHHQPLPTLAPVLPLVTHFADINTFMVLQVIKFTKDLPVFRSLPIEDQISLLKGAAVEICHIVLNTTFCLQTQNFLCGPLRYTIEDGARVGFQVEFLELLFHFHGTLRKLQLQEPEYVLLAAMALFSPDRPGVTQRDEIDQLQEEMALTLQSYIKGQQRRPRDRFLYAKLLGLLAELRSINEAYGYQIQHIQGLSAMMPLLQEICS
- Protocol Details: Scintillation proximity binding assay with [3H]clotrimazole
- Stated Conditions: 10 nM [3H]clotrimazole, 10 μM competitor
Measured Property: competition with [3H]clotrimazole for binding to hCAR (in words)

{"Smiles Str": "Clc1cnc(Oc2ccc(Oc3ncc(Cl)cc3Cl)cc2)c(Cl)c1", "Test System": "hCAR LBD (Homo sapiens, UniProt Q14994)", "Data Value": "did not compete"}
{"Smiles Str": "C[C@@]12CCC[C@H]1[C@@H]1CC[C@H]3C[C@@H](O)CC[C@]3(C)[C@H]1CC2", "Test System": "hCAR LBD (Homo sapiens, UniProt Q14994)", "Data Value": "competed efficiently"}
{"Smiles Str": "CCOP(=O)(OCC)C(=Cc1cc(C(C)(C)C)c(O)c(C(C)(C)C)c1)P(=O)(OCC)OCC", "Test System": "hCAR LBD (Homo sapiens, UniProt Q14994)", "Data Value": "did not compete"}
{"Smiles Str": "CC(=O)[C@H]1CC[C@H]2[C@@H]3CC[C@@H]4CC(=O)CC[C@]4(C)[C@H]3CC[C@]12C", "Test System": "hCAR LBD (Homo sapiens, UniProt Q14994)", "Data Value": "competed efficiently"}
